System: IL-17 production, human PBMC cells
Assay: IL-17 production assay using human PBMC
Type: cell-based
Conditions: Homo sapiens, PBMC, 72 h, human PBMC stimulated by cytostim for 3 days, IL-17 ELISA of supernatant
Grouping by measured IC50 is done with the following cut points: lower level (below 0.01 µM), middle level (0.01 µM to below 0.05 µM), upper level (0.05 µM or more)

1. CCS(=O)(=O)c1ccc(Cc2nc3c(Cl)c(-c4ccccc4OCOC)c(Cl)cc3[nH]2)cc1 [Example 13] : upper level

Consider CC(C)Oc1ccccc1-c1c(Cl)cc2nc(C(CO)c3ccc(S(=O)(=O)CC4CC4)cc3)[nH]c2c1Cl (stereo not drawn) [Example 134] . To which IC50 class does it belong?
lower level

Thanks! And CCS(=O)(=O)c1ccc(C(O)c2nc3c(Cl)c(-c4ccccc4OC(F)F)c(Cl)cc3[nH]2)cc1 (stereo not drawn) [Example 30] ?
lower level

Also, CCS(=O)(=O)c1ccc(Cc2nc3c(Cl)c(-c4ccccc4OC(F)(F)F)c(Cl)cc3[nH]2)c(Cl)c1 [Example 86] please.
middle level

Same question, O=S(=O)(CC1CC1)c1ccc(Cc2nc3c(Cl)c(-c4ccccc4C(F)(F)F)c(Cl)cc3[nH]2)cc1 [Example 69] this time
upper level

And what about the compound CCOc1ccccc1-c1c(Cl)cc2nc(C(O)c3ccc(S(=O)(=O)CC4CC4)cc3)[nH]c2c1Cl (stereo not drawn) [Example 138] ?
lower level

Repeat with CCS(=O)(=O)c1ccc(C(O)c2nc3c(Cl)c(-c4ccccc4OC)c(Cl)cc3[nH]2)cc1 (stereo not drawn) [Example 7]
upper level

How about this compound: CCS(=O)(=O)c1ccc(C(CO)c2nc3c(Cl)c(-c4ccccc4OC(F)(F)F)c(Cl)cc3[nH]2)c(F)c1 (stereo not drawn) [Example 77]
middle level

Moving on to CC(C)Oc1ccccc1-c1c(Cl)cc2nc(C(O)c3ccc(S(=O)(=O)CC4CC4)cc3)[nH]c2c1Cl (stereo not drawn) [Example 133]
middle level

###

Biological target: RORγ LBD-GST tagged (Homo sapiens, UniProt P51449)
Construct: RORγ LBD-GST tagged (Cat No. RORC-114H, Creative Biomart); purchased Creative Biomart RORC-114H
Experiment: LanthaScreen TR-FRET RORγ coactivator assay
Format: biochemical
Details: Fluorescein-D22 coactivator peptide, 1 hour room temperature
Each entry below carries its recorded IC50.
Report as a plain number; the unit µM is understood.

Example entries begin here.
1) CCS(=O)(=O)c1ccc(C(CO)c2nc3cc(-c4ccccc4OC(F)(F)F)c(F)cc3[nH]2)cc1 (stereo not shown) : 0.321
2) CCS(=O)(=O)c1ccc(C(O)c2nc3c(Cl)c(-c4ccccc4C#N)c(Cl)cc3[nH]2)cc1 (stereo not shown) : 0.318
3) CCS(=O)(=O)c1ccc(C(CO)c2nc3c(Cl)c(-c4ccccc4OC(F)(F)F)c(Cl)cc3[nH]2)c(Cl)c1 (stereo not shown) : 0.024

State the recorded IC50 for this entry: CCS(=O)(=O)c1ccc(Cc2nc3c(Cl)c(-c4ccccc4OCCOC)c(Cl)cc3[nH]2)cc1
0.052

###

Biological target: RORγ LBD-GST tagged (Homo sapiens, UniProt P51449)
Construct: RORγ LBD-GST tagged (Cat No. RORC-114H, Creative Biomart); purchased Creative Biomart RORC-114H
Test: LanthaScreen TR-FRET RORγ coactivator assay
Type: biochemical
Conditions: Fluorescein-D22 coactivator peptide, 1 hour room temperature
readout-type: IC50 (µM)
Express your answer in µM, writing the number without its unit.

Worked set:
1) CCS(=O)(=O)c1ccc(C(O)c2nc3c(Cl)c(-c4ccccc4OC(C)C)c(Cl)cc3[nH]2)cc1 (centres unmarked) : 0.056
2) CCS(=O)(=O)c1ccc(Cc2nc3c(Cl)c(-c4ccccc4OC(F)F)c(Cl)cc3[nH]2)c(Cl)c1 : 0.004
3) CS(=O)(=O)c1ccc(Cc2nc3c(Cl)c(-c4ccccc4OC(F)F)c(Cl)cc3[nH]2)cc1 : 0.196
4) CCS(=O)(=O)c1ccc(C(CCO)c2nc3c(Cl)c(N4CCC(F)(F)CC4)c(Cl)cc3[nH]2)cc1 (centres unmarked) [Example 145] : 0.068
5) O=S(=O)(CC1CC1)c1ccc(C(CCO)c2nc3cc(-c4ccccc4OC(F)F)c(Cl)cc3[nH]2)cc1 (single isomer, unassigned) [the longer retention time of 155 and 156] : 0.074

Query (molecule): CCS(=O)(=O)c1ccc(C(CO)c2nc3c(C)c(-c4ccccc4C(F)(F)F)c(C)cc3[nH]2)cc1 (centres unmarked) ; field requested: IC50
0.235

Try the molecule CCS(=O)(=O)c1ccc(C(CO)c2nc3c(Cl)c(-c4ccccc4OC(F)(F)F)c(Cl)cc3[nH]2)cc1 (centres unmarked)
0.16

Proceed to CCOc1ccccc1-c1c(Cl)cc2nc(Cc3ccc(S(=O)(=O)CC4CC4)cc3)[nH]c2c1Cl
0.005

Cool, now O=S(=O)(CC(F)(F)F)c1ccc(C(CO)c2nc3c(Cl)c(-c4ccccc4OC(F)(F)F)c(Cl)cc3[nH]2)cc1 (centres unmarked)
0.409

Moving on to the next molecule: CC(C)Oc1ccccc1-c1cc2nc(C(CC(N)=O)c3ccc(S(=O)(=O)CC4CC4)cc3)[nH]c2cc1Cl (centres unmarked) [Example 143]
0.01

###

Recorded IC50, one value per entry.
Target: RORγ LBD-GST tagged (Homo sapiens, UniProt P51449)
Construct: RORγ LBD-GST tagged (Cat No. RORC-114H, Creative Biomart); purchased Creative Biomart RORC-114H
Assay: LanthaScreen TR-FRET RORγ coactivator assay
Type: biochemical
Conditions: Fluorescein-D22 coactivator peptide, 1 hour room temperature
Express your answer in µM, writing the number without its unit.

1. CCS(=O)(=O)c1ccc(C(O)c2nc3c(Cl)c(-c4ccsc4)c(Cl)cc3[nH]2)cc1 (stereo not shown) [Example 26] : 0.465
2. O=S(=O)(CC1CC1)c1ccc(Cc2nc3c(Cl)c(-c4ccccc4OC(F)F)c(Cl)cc3[nH]2)c(F)c1 [Example 98] : 0.007
3. CC(C)Oc1ccccc1-c1c(Cl)cc2nc(C(CO)c3ccc(S(=O)(=O)CC4CC4)cc3)[nH]c2c1Cl (stereo not shown) [Example 134] : 0.006

Record request: IC50 value, item O=S(=O)(CC1CC1)c1ccc(C(CO)c2nc3c(Cl)c(-c4ccccc4OC(F)(F)F)c(Cl)cc3[nH]2)c(Cl)c1 (stereo not shown) [Example 91]
0.14

###

Tested on: IL-17 production, human PBMC cells
Test: IL-17 production assay using human PBMC
Type: cell-based
Settings: Homo sapiens, PBMC, 72 h, human PBMC stimulated by cytostim for 3 days, IL-17 ELISA of supernatant
Mark true for IC50 under 0.009 µM, false if at or over.

1. O=S(=O)(CC1CC1)c1ccc(Cc2nc3c(Cl)c(-c4ccccc4OC(F)F)c(Cl)cc3[nH]2)cc1 [Example 72] : true
2. CCS(=O)(=O)c1ccc(C(O)c2nc3c(Cl)c(-c4ccccc4OC(F)(F)F)c(Cl)cc3[nH]2)c(F)c1 (stereo not shown) [Example 78] : false
3. CC(=O)NCC(c1ccc(S(=O)(=O)CC2CC2)cc1)c1nc2cc(Cl)c(-c3ccccc3OC(F)F)cc2[nH]1 (stereo not shown) [Example 129] : false
4. O=S(=O)(CC1CC1)c1ccc(C(CO)c2nc3c(Cl)c(-c4ccccc4C(F)(F)F)c(Cl)cc3[nH]2)cc1 (stereo not shown) [Example 70] : true
5. NC(=O)CC(c1ccc(S(=O)(=O)CC2CC2)cc1)c1nc2cc(Cl)c(-c3ccccc3OC(F)F)cc2[nH]1 (stereo not shown) [Example 141] : false

# ---- query molecule ----
Input CCS(=O)(=O)c1ccc(C(N)c2nc3c(Cl)c(-c4ccccc4OC(F)F)c(Cl)cc3[nH]2)cc1 (stereo not shown) [Example 39] ; condition: IC50 strictly below 0.009 µM. Does it hold?
false

###

Molecular target: RORγ LBD-GST tagged (Homo sapiens, UniProt P51449)
Construct: RORγ LBD-GST tagged (Cat No. RORC-114H, Creative Biomart); purchased Creative Biomart RORC-114H
Sequence (P51449 269-508 limits assumed): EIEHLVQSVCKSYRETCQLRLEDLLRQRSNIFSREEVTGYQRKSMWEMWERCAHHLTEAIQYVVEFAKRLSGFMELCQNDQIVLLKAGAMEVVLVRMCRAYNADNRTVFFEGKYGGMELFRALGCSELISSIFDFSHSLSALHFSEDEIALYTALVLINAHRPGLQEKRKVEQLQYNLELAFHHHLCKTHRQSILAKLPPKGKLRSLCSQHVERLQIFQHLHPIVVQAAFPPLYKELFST
Experiment: LanthaScreen TR-FRET RORγ coactivator assay
Format: biochemical
Settings: Fluorescein-D22 coactivator peptide, 1 hour room temperature
Measured IC50 of individual entries

Solved cases (3 shown):
1. O=S(=O)(CC1CC1)c1ccc(C(CCN2CCOCC2)c2nc3cc(-c4ccccc4OC(F)F)c(Cl)cc3[nH]2)cc1 (single isomer, unassigned) [164 or 165 made from Int-164B] : 0.418 µM
2. CCS(=O)(=O)c1ccc(C(O)c2nc3c(C)c(-c4ccccc4OC)c(C)cc3[nH]2)cc1 (centres unmarked) : 0.306 µM
3. N#Cc1ccccc1-c1c(Cl)cc2[nH]c(C(CO)c3ccc(S(=O)(=O)CC4CC4)cc3)nc2c1Cl (centres unmarked) : 0.123 µM

Find the recorded IC50 belonging to CCS(=O)(=O)c1ccc(Cc2nc3c(C)c(-c4ccccc4C(F)(F)F)c(C)cc3[nH]2)cc1 and report it.
0.171 µM

Now give it for CCS(=O)(=O)c1ccc(C(NC(=O)c2c(C)noc2C)c2nc3c(Cl)c(-c4ccccc4OC(F)F)c(Cl)cc3[nH]2)cc1 (centres unmarked) too.
0.113 µM

One more molecule: CCS(=O)(=O)c1ccc(Cc2nc3c(Cl)c(-c4ccsc4)c(Cl)cc3[nH]2)cc1
0.701 µM

Entry CS(=O)(=O)c1ccc(C(CO)c2nc3c(Cl)c(-c4ccccc4C(F)(F)F)c(Cl)cc3[nH]2)cc1 (centres unmarked) please
0.048 µM

Subsequent entry: CCS(=O)(=O)c1ccc(Cc2nc3c(Cl)c(-c4ccccc4OC(F)(F)F)c(Cl)cc3[nH]2)c(F)c1
0.387 µM

Next molecule: CCS(=O)(=O)c1ccc(C(O)c2nc3c(F)c(-c4ccccc4OC)c(F)cc3[nH]2)cc1 (centres unmarked)
0.18 µM
